Here we list molecules with their recorded HepSE_hepatitis when tested on Hepatotoxicity.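 Note: Hepatitis-related hepatic side effect score taken from the training data of DILIps, a prediction system for drug-induced liver injury.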 Note: call rule not given here.
*1 amine or outer side, *2 acyl side, *3 side chain or, on linkers, in order; H or OH if unused. Where a SMILES comes first, the peptide text is derived from it. Bridges are numbered along the chain shown (N, C = ends). [ ]: non-standard residue; d: D form. The star is where a group is joined. pTerphenylCO(4''-OnC5H11) = CCCCCOc1ccc(-c2ccc(-c3ccc(C(=O)*)cc3)cc2)cc1; Orn(4R-OH,5R-OH) = O=C([C@H](C[C@@H](O)[C@@H](O)N[*:3])N[*:1])[*:2]; hTyr(3S-OH,4S-OH) = N[C@H](C(=O)O)[C@H](O)[C@@H](O)c1ccc(O)cc1; Pro(3S-OH,4S-Me) = C[C@H]1CN[C@H](C(=O)O)[C@H]1O; Hyp = O=C(O)[C@@H]1C[C@@H](O)CN1
Reply with just the number.

Here's what some known entries look like.
1) O=[As][As+](=O)[O-] (configuration not stated) [ARSENIC TRIOXIDE]    0
2) CCCCCOc1ccc(-c2ccc(-c3ccc(C(=O)N[C@H]4C[C@@H](O)[C@@H](O)NC(=O)[C@@H]5[C@@H](O)[C@@H](C)CN5C(=O)[C@H]([C@@H](C)O)NC(=O)[C@H]([C@H](O)[C@@H](O)c5ccc(O)cc5)NC(=O)[C@@H]5C[C@@H](O)CN5C(=O)[C@H]([C@@H](C)O)NC4=O)cc3)cc2)cc1 [ANIDULAFUNGIN] ({pTerphenylCO(4''-OnC5H11)}-[Orn(4R-OH,5R-OH)]T[Hyp][hTyr(3S-OH,4S-OH)]T[Pro(3S-OH,4S-Me)]; lactam 1-C)    0
3) CN(C)CCc1c[nH]c2ccc(CS(=O)(=O)N3CCCC3)cc12 [ALMOTRIPTAN]    0

Give HepSE_hepatitis for CCN[C@H]1CN(CCCOC)S(=O)(=O)c2sc(S(N)(=O)=O)cc21 [BRINZOLAMIDE]
0

Give HepSE_hepatitis for CN(C)CCCOc1nn(Cc2ccccc2)c2ccccc12 [BENZYDAMINE]
0
